Target: recombinant eIF4E (Homo sapiens (Human), UniProt P06730)
Sequence (P06730 whole entry): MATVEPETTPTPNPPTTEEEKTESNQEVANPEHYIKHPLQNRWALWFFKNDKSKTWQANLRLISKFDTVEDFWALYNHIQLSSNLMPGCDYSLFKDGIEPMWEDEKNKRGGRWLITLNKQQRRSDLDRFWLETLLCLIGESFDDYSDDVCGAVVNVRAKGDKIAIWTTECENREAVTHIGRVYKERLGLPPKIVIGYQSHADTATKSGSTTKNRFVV
Assay: Fluorescence polarization competition assay for eIF4E binding potency
Settings: inhibition of eIF4E/EDA-m7GDP-ATTO-550 binding by 50%; Table 4B calculated values; read-out: IC50
pIC50: −log10 of the molar value.
Classify as follows. Reported pIC50 greater than or equal to 8: Yes. Reported pIC50 below: No.

Solved cases below.
Cc1nc2cc(C(F)(F)F)cc(C#N)c2c(=O)n1CCOc1ccc(Cl)cc1-c1csc2c(C(=O)O)csc12 : No
Cc1nc2cc(C(F)(F)F)c(N3CCN(c4ccncc4)CC3)c(C#N)c2c(=O)n1CCOc1ccc(Cl)cc1-c1cccc(C(=O)O)c1 : No
N#Cc1ccc2ncn(CCOc3ccc(Cl)cc3-c3cccc(C(=O)O)c3)c(=O)c2c1C#N : No
Cc1cc(-c2cc(Cl)ccc2OCCn2c(C)nc3cc(Cl)c(-c4cccnc4)c(C#N)c3c2=O)c2scc(C(=O)O)c2n1 : No
N#Cc1cc(C(=O)O)cc(-c2cc(Cl)ccc2OCCn2cnc3cnc(C#N)cc3c2=O)c1 : No
Cc1cc(-c2cc(Cl)ccc2OCCn2c(C)nc3cc(F)c(C)c(C#N)c3c2=O)c2scc(C(=O)O)c2n1 : No
Cc1cc(-c2cc(Cl)ccc2OCCn2c(C)cc3cnc(-c4cc(F)cnc4C)c(C#N)c3c2=O)c2scc(C(=O)O)c2n1 : No
C#Cc1c(C(=O)O)cccc1-c1cc(Cl)ccc1OCCn1c(C)nc2cc(C(F)(F)F)cc(C#N)c2c1=O : Yes
Cc1cc(-c2cc(Cl)ccc2OCCn2c(C)nc3cnc(N)c(C#N)c3c2=O)c2scc(C(=O)O)c2n1 : No

Query :: Would you say Cc1cc(-c2cc(Cl)ccc2OCCn2c(C)nc3cc(Cl)c(N4CC(C)(CO)C4)c(C#N)c3c2=O)c2scc(C(=O)O)c2n1 shows pIC50 at minimum 8?
Result :: Yes

----------
Biological target: recombinant eIF4E (Homo sapiens (Human), UniProt P06730)
Assay: Fluorescence polarization competition assay for eIF4E binding potency
Conditions: inhibition of eIF4E/EDA-m7GDP-ATTO-550 binding; calculated IC50 values, Table 4B; read-out: IC50
Quick rule for you: IC50 under 60 nM gets Criterion met, anything else gets Criterion not met.

Consider the worked cases shown below.
Cc1cc(O)c(-c2c(C(F)(F)F)cc3nc(C)n(CCOc4ccc(Cl)cc4-c4cc(C)nc5c(C(=O)O)csc45)c(=O)c3c2C#N)cn1 : Criterion not met
Cc1nc2cc(C(F)F)cc(C#N)c2c(=O)n1CCOc1ccc(Cl)cc1-c1ccnc2c(C(=O)O)csc12 : Criterion met
Cc1nc2cnc(N3CCN(CCC(F)(F)F)CC3)c(C#N)c2c(=O)n1CC#Cc1ccc(Cl)cc1-c1ccnc2c(C(=O)O)csc12 : Criterion met
COc1ccc(-c2csc3c(-c4cc(Cl)ccc4OCCn4c(C)nc5cnc(N6CCN(C)CC6)c(C#N)c5c4=O)ccnc23)cc1 : Criterion not met

Would you kindly look at the next entry?
Query :: Lab note: IC50 threshold 60 nM. Does this compound come in strictly under it? Cc1cc(S(=O)(=O)NC(=O)c2csc3c(-c4cc(Cl)ccc4C#CCn4c(C)nc5cnc(N(C)C6CCN(CC(C)(F)F)CC6)c(C#N)c5c4=O)ccnc23)ccn1
Result :: Criterion met

----------
Target: recombinant eIF4E (Homo sapiens (Human), UniProt P06730)
Experiment: Fluorescence polarization competition assay for eIF4E binding potency
Details: inhibition of eIF4E/EDA-m7GDP-ATTO-550 binding; calculated IC50 values, Table 4B; read-out: IC50
# label = class 1 if IC50 < 0.03 µM else class 0

Past entries and their recorded results:
Cc1nc2cnc(N(C)C3CCN(C4CC4)CC3)c(C#N)c2c(=O)n1CCOc1ccc(Cl)cc1-c1ccnc2c(C(=O)O)csc12 : class 1
Cc1nc2cnc(N(C)C3CCN(C4CC4)C4(CC4)C3)c(C#N)c2c(=O)n1CC#Cc1ccc(Cl)cc1-c1ccnc2c(C(=O)O)csc12 (stereo not drawn) : class 0
Cc1nc2cc(C(F)(F)F)c3c(c2c(=O)n1CCOc1ccc(Cl)cc1-c1ccnc2c(C(=O)O)csc12)C(=O)OC3 : class 1
Cc1cc(-c2cc(Cl)ccc2OCCn2c(C)nc3cc(C(F)(F)F)c(OCCN4CCNCC4)c(C#N)c3c2=O)c2sc(C)c(C(=O)O)c2n1 : class 1
Cc1nc2c(F)cc(C(F)F)c(C#N)c2c(=O)n1CCOc1ccc(Cl)cc1-c1ccnc2c(C(=O)NS(C)(=O)=O)csc12 : class 0

With those in mind, consider the next molecule.
Query :: Given the entry Cc1nc2cnc(N(C)C3CCN(CC(F)(F)F)CC3)c(C#N)c2c(=O)n1CC#Cc1ccc(Cl)cc1-c1ccnc2c(C(=O)NS(=O)(=O)C3CC3)csc12 , would its reported IC50 be below 0.03 µM?
Result :: class 1

----------
Molecular target: recombinant eIF4E (Homo sapiens (Human))
Test: Fluorescence polarization competition assay for eIF4E binding potency
Details: inhibition of eIF4E/EDA-m7GDP-ATTO-550 binding by 50%; Table 4B calculated values; read-out: IC50
Quantity Measured: pIC50
One number for each entry, as −log10 of the molar value.

Cc1nc2c(C(F)(F)F)ncc(C#N)c2c(=O)n1CCOc1ccc(Cl)cc1-c1cccc(C(=O)O)c1 : 7.26

Hi! Can you tell me pIC50 for each of these molecules?
1. CC(=O)c1csc2c(-c3cc(Cl)ccc3C#CCn3c(C)nc4cc(C(F)(F)F)c(N5CC6(C5)CN(C5CC5)C6)c(C#N)c4c3=O)ccnc12
2. Cc1cc(-c2cc(Cl)ccc2OCCn2c(C)nc3cc(C(F)(F)F)c(N4CCN(CCF)CC4)c(C#N)c3c2=O)c2scc(C(=O)O)c2n1

Result ::
1. 7.64
2. 8.05

Consider the following items and state reported pIC50 for each.
1. N#Cc1cncc2nc(CCC(=O)O)n(CCOc3ccc(Cl)cc3-c3ccccc3)c(=O)c12
2. Cc1nc2cnc(N(C)C3CC4(C3)CN(CC(F)(F)F)C4)c(C#N)c2c(=O)n1CC#Cc1ccc(Cl)cc1-c1ccnc2c(C(=O)O)csc12

Result ::
1: 6.20; 2: 8.24

----------
So I've got a bunch of compounds here, and I need their pIC50 values.
Target: recombinant eIF4E (Homo sapiens (Human), UniProt P06730)
Assay: Fluorescence polarization competition assay for eIF4E binding potency
Conditions: fluorescence polarization competition, 75 nM recombinant eIF4E, 20 nM EDA-m7GDP-ATTO-550; IC50 class; read-out: elF4E FP
pIC50: −log10 of the molar value.

Cc1nc2cc(C(F)(F)F)cc(C#N)c2c(=O)n1CCOc1ccc(Cl)cc1-c1ccnc2c(CC(=O)O)csc12 : > 7.30
C=C1c2c(C#N)cc(C(F)(F)F)cc2N=C(C)N1CCOc1ccc(Cl)cc1-c1cc(CCO)nc2c(C(=O)O)csc12 : > 7.30
Cc1sc2c(-c3cc(Cl)ccc3OCCn3c(C)nc4cc(C(F)(F)F)c(N5CCN(C)CC5)c(C#N)c4c3=O)ccnc2c1C(=O)O : 6.00 to 7.30
Cc1nc2c(N3CCN(C)CC(F)(F)C3)ncc(C#N)c2c(=O)n1CCOc1ccc(Cl)cc1-c1ccnc2c(C(=O)O)csc12 : > 7.30

Value sought for every listed compound: pIC50.
1. Cc1cc(-c2cc(Cl)ccc2OCCn2c(C)nc3cc(C(F)(F)F)c(C4=CCOCC4)c(C#N)c3c2=O)c2scc(C(=O)O)c2n1
2. Cc1cc(-c2cc(Cl)ccc2OCCn2c(C)nc3cc(C(F)(F)F)c(-c4ccnc5c4CCN5)c(C#N)c3c2=O)c2scc(C(=O)O)c2n1
3. Cc1cc(-c2cc(Cl)ccc2OCCn2c(C)nc3c(C(F)(F)F)ncc(C#N)c3c2=O)c2scc(C(=O)O)c2n1

Result ::
> 7.30
> 7.30
> 7.30

----------
Molecular target: recombinant eIF4E (Homo sapiens (Human))
Assay: Fluorescence polarization competition assay for eIF4E binding potency
Details: fluorescence polarization competition, 75 nM recombinant eIF4E, 20 nM EDA-m7GDP-ATTO-550; IC50 class; read-out: elF4E FP
pIC50: −log10 of the molar value.
Quantity Measured: pIC50

Please review the following examples before continuing.
N#Cc1cc(C(F)(F)F)cc2nc(O)n(CCOc3ccc(Cl)cc3-c3cccc(C(=O)O)c3)c(=O)c12 : 6.00 to 7.30
CCc1cc(-c2cc(Cl)ccc2OCCn2c(C)nc3cc(C(F)(F)F)c(N4CCN(C)CC4)c(C#N)c3c2=O)c2sc(C)c(C(=O)O)c2n1 : > 7.30
Cc1nc2cc(C(F)(F)F)c(CN3CCN(C)CC3)c(C#N)c2c(=O)n1CCOc1ccc(Cl)cc1-c1cc(CCF)nc2c(C(=O)O)csc12 : > 7.30

Could I get pIC50 for every one of these entries?
1. Cc1cc(-c2cc(Cl)ccc2OCCn2c(C)nc3cc(C(F)(F)F)c(-c4cn(C)nc4C)c(C#N)c3c2=O)c2scc(C(=O)O)c2n1
2. Cc1cc(-c2cc(Cl)ccc2OCCn2c(C)nc3cc(C(F)(F)F)c(N4CCN(C)C(C(F)(F)F)C4)c(C#N)c3c2=O)c2sc(C)c(C(=O)O)c2n1 (stereo not shown)
3. CCc1cc(-c2cc(F)c(F)cc2OCCn2c(C)nc3cc(C(F)(F)F)c(N4CCN(C)CC4)c(C#N)c3c2=O)c2scc(C(=O)O)c2n1
4. Cc1cc(-c2cc(Cl)ccc2OCCn2c(C)nc3cc4c(c(C#N)c3c2=O)CN(C)CC4)c2scc(C(=O)O)c2n1
5. Cc1cc(-c2cc(Cl)ccc2C#CCn2c(C)nc3cc(C(F)(F)F)c(-c4ccncn4)c(C#N)c3c2=O)c2scc(C(=O)O)c2n1
6. Cc1nc2cc(C(F)(F)F)cc(C#N)c2c(=O)n1CCOc1cnc(Cl)nc1-c1ccnc2c(C(=O)O)csc12

Result ::
["> 7.30", "6.00 to 7.30", "> 7.30", "> 7.30", "> 7.30", "6.00 to 7.30"]

Hello, I would appreciate it if you could give pIC50 for each entry below.
1. COCc1ncc2nc(C)n(CCOc3ccc(Cl)cc3-c3cc(C)nc4c(C(=O)O)csc34)c(=O)c2c1C#N
2. O=C(O)c1cccc(-c2cc(Cl)ccc2OCCn2cnc3c(F)cccc3c2=O)c1
3. Cc1cc(-c2cc(Cl)ccc2OCCn2c(C)nc3cc(C(F)(F)F)c(N(C)C)c(C#N)c3c2=O)c2scc(C(=O)O)c2n1
4. N#Cc1cc2c(=O)n(C/C=C/c3ccc(Cl)cc3-c3cccc(C(=O)O)c3)cnc2cn1

Result ::
["6.00 to 7.30", "< 6.00", "> 7.30", "< 6.00"]
